These measurements were taken from ChEMBL document CHEMBL1154658.

Test: Plasma clearance in Beagle dog at 2 mg/kg, iv
Type: ADME, organism-based, Canis lupus familiaris
Design: dose 2 mg/kg, route intravenous
QUANTITY NAME: clearance (mL/min/kg)
Express the result in mL/min/kg but write the number alone.

Incoming: Answer with reported clearance of C=C[C@@H]1C[C@]1(NC(=O)[C@@H]1C[C@@H]2CN1C(=O)[C@H]([C@@H](C)CC)Nc1nc(cs1)CCC/C=C/c1cccc3c1CN(C3)C(=O)O2)C(=O)[N-]S(=O)(=O)C1CC1.[K+]
Outgoing: 38

====

Assay: AUC in Sprague-Dawley rat at 5 mg/kg, po
Format: ADME, organism-based
Design: dose 5 mg/kg, route oral
Conditions: plasma
QUANTITY NAME: AUC (µM·h)
Express the result in µM·h but write the number alone.

Incoming: Answer with reported AUC of C=C[C@@H]1C[C@]1(NC(=O)[C@@H]1C[C@@H]2CN1C(=O)[C@H]([C@@H](C)CC)Nc1nc(cs1)CCC/C=C/c1cccc3c1CN(C3)C(=O)O2)C(=O)[N-]S(=O)(=O)C1CC1.[K+]
Outgoing: 1.7

====

Test: Drug level in Sprague-Dawley rat liver at 4 mg/kg, po after 4 hrs
Format: ADME, organism-based
Set-up: dose 4 mg/kg, route oral
Conditions: read-out: Drug uptake
QUANTITY NAME: concentration at 4 h (nM)
Express the result in nM but write the number alone.

compound=C=C[C@@H]1C[C@]1(NC(=O)[C@@H]1C[C@@H]2CN1C(=O)[C@H](C1CCCC1)Nc1nc(cs1)CCC/C=C/c1cccc3c1CN(C3)C(=O)O2)C(=O)NS(=O)(=O)C1CC1.O=C(O)C(F)(F)F quantity_name="concentration at 4 h" unit_of_measurement=nM recorded_value=180
compound=C=C[C@@H]1C[C@]1(NC(=O)[C@@H]1C[C@@H]2CN1C(=O)[C@H](C1CCCCC1)Nc1nc(cs1)CCC/C=C/c1cccc3c1CN(C3)C(=O)O2)C(=O)NS(=O)(=O)C1CC1.O=C(O)C(F)(F)F quantity_name="concentration at 4 h" unit_of_measurement=nM recorded_value=350
compound=C=C[C@@H]1C[C@]1(NC(=O)[C@@H]1C[C@@H]2CN1C(=O)[C@H]([C@@H](C)CC)Nc1nc(cs1)CCC/C=C/c1cccc3c1CN(C3)C(=O)O2)C(=O)NS(=O)(=O)C1CC1.O=C(O)C(F)(F)F quantity_name="concentration at 4 h" unit_of_measurement=nM recorded_value=350
compound=C=C[C@@H]1C[C@]1(NC(=O)[C@@H]1C[C@@H]2CN1C(=O)[C@H](C(C)(C)C)Nc1nc(cs1)CCC/C=C/c1cccc3c1CN(C3)C(=O)O2)C(=O)NS(=O)(=O)C1CC1.O=C(O)C(F)(F)F quantity_name="concentration at 4 h" unit_of_measurement=nM recorded_value=130

Could you now consider this next compound?
Incoming: Answer with reported concentration at 4 h of CCC1C[C@]1(NC(=O)[C@@H]1C[C@@H]2CN1C(=O)[C@H](C1CCCCC1)Nc1nc(cs1)CCC/C=C/c1cccc3c1CN(C3)C(=O)O2)C(=O)NS(=O)(=O)C1CC1.O=C(O)C(F)(F)F (single isomer, unassigned)
Outgoing: 570

====

Assay: Cmax in Beagle dog at 5 mg/kg, po
Format: ADME, organism-based, Canis lupus familiaris
Design: dose 5 mg/kg, route oral
Conditions: in vivo
QUANTITY NAME: Cmax (µM)
Express the result in µM but write the number alone.

Incoming: Answer with reported Cmax of C=C[C@@H]1C[C@]1(NC(=O)[C@@H]1C[C@@H]2CN1C(=O)[C@H]([C@@H](C)CC)Nc1nc(cs1)CCC/C=C/c1cccc3c1CN(C3)C(=O)O2)C(=O)[N-]S(=O)(=O)C1CC1.[K+]
Outgoing: 1.16
